- Subject Of Test: c-Kit (Homo sapiens, UniProt P10721)
- Sequence (P10721 26-976): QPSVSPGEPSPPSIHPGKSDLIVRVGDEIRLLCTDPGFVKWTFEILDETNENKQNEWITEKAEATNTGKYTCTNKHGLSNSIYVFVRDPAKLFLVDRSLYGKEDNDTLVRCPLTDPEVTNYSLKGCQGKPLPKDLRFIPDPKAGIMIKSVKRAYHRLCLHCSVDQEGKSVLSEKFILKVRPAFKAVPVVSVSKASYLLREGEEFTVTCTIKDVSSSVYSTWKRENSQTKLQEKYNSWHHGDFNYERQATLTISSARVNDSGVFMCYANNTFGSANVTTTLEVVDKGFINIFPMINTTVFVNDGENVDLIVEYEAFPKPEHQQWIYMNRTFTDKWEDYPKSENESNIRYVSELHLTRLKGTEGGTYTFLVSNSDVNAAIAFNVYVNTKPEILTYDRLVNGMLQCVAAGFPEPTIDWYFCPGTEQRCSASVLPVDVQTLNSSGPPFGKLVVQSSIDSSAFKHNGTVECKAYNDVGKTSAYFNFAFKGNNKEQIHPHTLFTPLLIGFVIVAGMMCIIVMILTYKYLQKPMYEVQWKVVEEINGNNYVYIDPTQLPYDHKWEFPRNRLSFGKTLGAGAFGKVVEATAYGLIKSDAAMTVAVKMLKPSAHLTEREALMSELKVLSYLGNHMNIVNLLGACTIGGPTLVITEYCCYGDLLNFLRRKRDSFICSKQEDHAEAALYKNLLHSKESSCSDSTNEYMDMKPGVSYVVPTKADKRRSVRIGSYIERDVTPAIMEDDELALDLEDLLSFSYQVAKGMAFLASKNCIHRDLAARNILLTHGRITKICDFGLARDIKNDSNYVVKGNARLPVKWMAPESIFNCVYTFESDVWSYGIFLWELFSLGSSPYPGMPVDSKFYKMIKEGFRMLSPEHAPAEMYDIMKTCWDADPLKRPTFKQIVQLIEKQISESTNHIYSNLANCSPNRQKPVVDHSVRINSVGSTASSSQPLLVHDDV
- Test: c-Kit biochemical assay (per US 2007/0032519)
Here the recorded IC50 is given for each entry.

smi=Cn1cnc2ccc(-c3c[nH]c4ncc(-c5cccc(S(N)(=O)=O)c5)cc34)cc21 quantity_measured=IC50 observed_value="10 to 200 µM"
smi=Cn1cnc2ccc(-c3c[nH]c4ncc(C5=CCN(C(=O)C6CC6)C5)cc34)cc21 quantity_measured=IC50 observed_value="10 to 200 µM"
smi=Fc1cnc2[nH]cc(-c3ccc4nc[nH]c4c3)c2c1 quantity_measured=IC50 observed_value="10 to 200 µM"

Any idea what IC50 came out for `COc1cnc2[nH]cc(-c3ccc4[nH]nc(C)c4c3)c2c1` on c-Kit (Homo sapiens, UniProt P10721)?
1 to 10 µM

Any idea what IC50 came out for `Cn1cc(-c2cnc3[nH]cc(-c4ccc5ncn(C)c5c4)c3c2)ccc1=O` on c-Kit (Homo sapiens, UniProt P10721)?
1 to 10 µM

Any idea what IC50 came out for `CC(C)(C)n1cnc2ccc(-c3c[nH]c4ncc(-c5cnc(C#N)nc5)nc34)cc21` on c-Kit (Homo sapiens, UniProt P10721)?
10 to 200 µM

* * *

- Subject Of Test: c-Kit (Homo sapiens, UniProt P10721)
- Test: c-Kit biochemical assay (per US 2007/0032519)
Quantity Measured: IC50

compound="CN(c1cccc(-c2cnc3[nH]cc(-c4ccc5ncn(C)c5c4)c3c2)c1)S(C)(=O)=O [P-120]" observed_value="1 to 10 µM"
compound="CC(C)(C)n1cnc2ccc(-c3c[nH]c4ncc(-c5cncc(N6CCOCC6)c5)nc34)cc21 [P-387]" observed_value="0.0001 to 1 µM"
compound="Nc1n[nH]c2ccc(-c3c[nH]c4ncccc34)cc12 [P-006]" observed_value="1 to 10 µM"
compound="CN(C)c1ccc(-c2cnc3[nH]cc(-c4ccc5ncn(C(C)(C)C)c5c4)c3n2)cn1 [P-379]" observed_value="0.0001 to 1 µM"
compound="COc1cc(-c2cnc3[nH]cc(-c4ccc5ncn(C)c5c4)c3c2)cc(C)n1 [P-124]" observed_value="10 to 200 µM"

Any idea what IC50 came out for Cn1cnc2ccc(-c3c[nH]c4ncccc34)cc21 [P-009] on c-Kit (Homo sapiens, UniProt P10721)?
1 to 10 µM

Any idea what IC50 came out for COc1cnc2[nH]cc(-c3ccc4[nH]nnc4c3)c2c1 [P-014] on c-Kit (Homo sapiens, UniProt P10721)?
10 to 200 µM

Any idea what IC50 came out for c1cnc2[nH]cc(-c3ccc4[nH]ncc4c3)c2c1 [P-001] on c-Kit (Homo sapiens, UniProt P10721)?
0.0001 to 1 µM

Any idea what IC50 came out for CC(C)n1cc(-c2cnc3[nH]cc(-c4ccc5ncn(C(C)(C)C)c5c4)c3n2)cn1 [P-382] on c-Kit (Homo sapiens, UniProt P10721)?
0.0001 to 1 µM

Any idea what IC50 came out for CC(C)S(=O)(=O)Nc1cccc(-c2cnc3[nH]cc(-c4ccc5ncn(C)c5c4)c3c2)c1 [P-096] on c-Kit (Homo sapiens, UniProt P10721)?
1 to 10 µM
